Reported values of GI50 for individual entries
Test system: U251
procedure.text: NCI-60 SRB screen: CNS cancer U251
Type: cell-based
conditions: Homo sapiens, U-251; U251; five concentrations, 48 h, SRB; read-out: GI50
I only need the number, in µM, no unit after it.

Illustrative cases are given below, each with its answer.
CC(=O)OCC12CCC(C(C)C(N)=O)C1C1CCC3C4(C)CCC(OC(C)=O)C(C)(C)C4CCC3(C)C1(C)CC2 (centres unmarked)
5.1
C=C(C)[C@@H]1CC[C@]2(C(=O)OC)CC[C@]3(C)[C@H](CC[C@@H]4[C@@]5(C)CCC(=NOCCC(=NOCCC#N)NCCC#N)C(C)(C)[C@@H]5CC[C@]43C)[C@@H]12
4.3
C=C(C)[C@@H]1CC[C@]2(C(=O)NCCCN)CC[C@]3(C)[C@H](CC[C@@H]4[C@@]5(C)CCC(=O)C(C)(C)[C@@H]5CC[C@]43C)[C@@H]12
17.7

Entry under review: C=C(C)[C@@H]1CC[C@]2(C(=O)NCCNCCNCCN)CC[C@]3(C)[C@H](CC[C@@H]4[C@@]5(C)CC[C@H](O)C(C)(C)[C@@H]5CC[C@]43C)[C@@H]12 . Reported GI50?
12.7

Same lookup for C=C(C)[C@@H]1CC[C@]2(C(=O)NCCNCCNCCN)CC[C@]3(C)[C@H](CC[C@@H]4[C@@]5(C)CCC(=O)C(C)(C)[C@@H]5CC[C@]43C)[C@@H]12 , please.
7.34

* * *

Tested on: MDA-MB-231/ATCC
procedure.text: NCI-60 SRB screen: breast cancer MDA-MB-231/ATCC
Type: cell-based
conditions: Homo sapiens, MDA-MB-231; MDA-MB-31/ATCC; five concentrations, 48 h, SRB; read-out: GI50
So basically: is GI50 under 20 µM? Then TRUE. Not under? Then FALSE.

CC(=O)OCC12CCC(C(C)C(N)=O)C1C1CCC3C4(C)CCC(OC(C)=O)C(C)(C)C4CCC3(C)C1(C)CC2 (centres unmarked)
TRUE
C=C(C)[C@@H]1CC[C@]2(C(=O)NCCNCCNCCN)CC[C@]3(C)[C@H](CC[C@@H]4[C@@]5(C)CCC(=O)C(C)(C)[C@@H]5CC[C@]43C)[C@@H]12
TRUE

Lab note: GI50 threshold 20 µM. Does this compound come in strictly under it? C=C(C)[C@@H]1CC[C@]2(C(=O)NCCNCCNCCN)CC[C@]3(C)[C@H](CC[C@@H]4[C@@]5(C)CC[C@H](O)C(C)(C)[C@@H]5CC[C@]43C)[C@@H]12
TRUE

Same lookup for C=C(C)[C@@H]1CC[C@]2(C(=O)NCCCN)CC[C@]3(C)[C@H](CC[C@@H]4[C@@]5(C)CCC(=O)C(C)(C)[C@@H]5CC[C@]43C)[C@@H]12 , please.
FALSE

Same lookup for C=C(C)[C@@H]1CC[C@]2(C(=O)OC)CC[C@]3(C)[C@H](CC[C@@H]4[C@@]5(C)CCC(=NOCCC(=NOCCC#N)NCCC#N)C(C)(C)[C@@H]5CC[C@]43C)[C@@H]12 , please.
TRUE

* * *

Test system: Rat Liver ER Neutral α-Glucosidase
procedure.text: Endoplasmic reticulum α-glucosidase activity assay
Format: biochemical
conditions: 100 μM
From the text: Betulinic acid inhibits yeast α-glucosidase activity and interferes with N-linked glycan modifications to cell-surface intercellular adhesion molecule-1 (ICAM-1) in human lung carcinoma A549 cells in a similar manner to castanospermine, an inhibitor of endoplasmic reticulum α-glucosidases I and II [66]. […] Taken together, these considerations prompted us to evaluate a series of lupanes with amide function or polyamine chain 11, 12, 16, 18, and 22–26 for α-glucosidase inhibition. […]
Reported values of Rat Liver ER Neutral α-Glucosidase Inhibition, m ± SD for individual entries
I only need the number, in %, no unit after it.

C=C(C)[C@@H]1CC[C@]2(CO)CC[C@]3(C)[C@H](CC[C@@H]4[C@@]5(C)CCCNC(C)(C)[C@@H]5CC[C@]43C)[C@@H]12
5.85

Entry under review: C=C(C)[C@@H]1CC[C@]2(C=NCCCNCCCCN)CC[C@]3(C)[C@H](CC[C@@H]4[C@@]5(C)CCC(=O)C(C)(C)[C@@H]5CC[C@]43C)[C@@H]12 . Reported Rat Liver ER Neutral α-Glucosidase Inhibition, m ± SD?
58.52

Same lookup for C=C(C)[C@@H]1CC[C@]2(C(=O)NCCNCCN)CC[C@]3(C)[C@H](CC[C@@H]4[C@@]5(C)CCC(=O)C(C)(C)[C@@H]5CC[C@]43C)[C@@H]12 , please.
23.59

Same lookup for C=C(C)[C@@H]1CC[C@]2(COCCCN)CC[C@]3(C)[C@H](CC[C@@H]4[C@@]5(C)CC[C@H](OCCCN)C(C)(C)[C@@H]5CC[C@]43C)[C@@H]12 , please.
36.51

Same lookup for C=C(C)[C@@H]1CC[C@]2(C(=O)NCCNCCNCCN)CC[C@]3(C)[C@H](CC[C@@H]4[C@@]5(C)CCC(=O)C(C)(C)[C@@H]5CC[C@]43C)[C@@H]12 , please.
43.60

* * *

System: HS 578T
procedure.text: NCI-60 SRB screen: breast cancer HS 578T
Assay type: cell-based, human
conditions: Homo sapiens; HS 578T; five concentrations, 48 h, SRB; read-out: GI50
Reported values of GI50 for individual entries

C=C(C)[C@@H]1CC[C@]2(C(=O)OC)CC[C@]3(C)[C@H](CC[C@@H]4[C@@]5(C)CCC(=NOCCC(=NOCCC#N)NCCC#N)C(C)(C)[C@@H]5CC[C@]43C)[C@@H]12
30.2 µM

Entry under review: C=C(C)[C@@H]1CC[C@]2(C(=O)NCCNCCNCCN)CC[C@]3(C)[C@H](CC[C@@H]4[C@@]5(C)CC[C@H](O)C(C)(C)[C@@H]5CC[C@]43C)[C@@H]12 . Reported GI50?
20.1 µM

Same lookup for CC(=O)OCC12CCC(C(C)C(N)=O)C1C1CCC3C4(C)CCC(OC(C)=O)C(C)(C)C4CCC3(C)C1(C)CC2 (centres unmarked) , please.
12.4 µM

Same lookup for C=C(C)[C@@H]1CC[C@]2(C(=O)NCCNCCNCCN)CC[C@]3(C)[C@H](CC[C@@H]4[C@@]5(C)CCC(=O)C(C)(C)[C@@H]5CC[C@]43C)[C@@H]12 , please.
8.3 µM

Same lookup for C=C(C)[C@@H]1CC[C@]2(C(=O)NCCCN)CC[C@]3(C)[C@H](CC[C@@H]4[C@@]5(C)CCC(=O)C(C)(C)[C@@H]5CC[C@]43C)[C@@H]12 , please.
40.5 µM

* * *

Test system: SW-620
procedure.text: NCI-60 SRB screen: colon cancer SW-620
Assay type: cell-based
conditions: Homo sapiens, 48 h; SW-620; single dose 10 µM; read-out: Percentage Cell Growth
readout.label: activity at 10 µM (%)
I only need the number, in %, no unit after it.

CC(=O)OCC12CCC(C(C)C(N)=O)C1C1CCC3C4(C)CCC(OC(C)=O)C(C)(C)C4CCC3(C)C1(C)CC2 (stereo not shown)
-55.1
C=C(C)[C@@H]1CC[C@]2(C(=O)OC)CC[C@]3(C)[C@H](CC[C@@H]4[C@@]5(C)CCC(=NOCCC(=NOCCC#N)NCCC#N)C(C)(C)[C@@H]5CC[C@]43C)[C@@H]12
22
C=C(C)[C@@H]1CC[C@]2(C(=O)NCCCN)CC[C@]3(C)[C@H](CC[C@@H]4[C@@]5(C)CCC(=O)C(C)(C)[C@@H]5CC[C@]43C)[C@@H]12
-36.2

We next turn to a different molecule, shown below.
Entry under review: C=C(C)[C@@H]1CC[C@]2(C(=O)NCCNCCNCCN)CC[C@]3(C)[C@H](CC[C@@H]4[C@@]5(C)CC[C@H](O)C(C)(C)[C@@H]5CC[C@]43C)[C@@H]12 . Reported activity at 10 µM?
-86.7

* * *

System: SNB-19
procedure.text: NCI-60 SRB screen: CNS cancer SNB-19
Format: cell-based, human
conditions: Homo sapiens; SNB-19; five concentrations, 48 h, SRB; read-out: GI50
readout.label: GI50

# returns recorded GI50 (system: SNB-19) for C=C(C)[C@@H]1CC[C@]2(C(=O)NCCNCCNCCN)CC[C@]3(C)[C@H](CC[C@@H]4[C@@]5(C)CC[C@H](O)C(C)(C)[C@@H]5CC[C@]43C)[C@@H]12 [Compound 6]
12.9 µM

Same lookup for C=C(C)[C@@H]1CC[C@]2(C(=O)NCCCN)CC[C@]3(C)[C@H](CC[C@@H]4[C@@]5(C)CCC(=O)C(C)(C)[C@@H]5CC[C@]43C)[C@@H]12 [Compound 10] , please.
24.7 µM

* * *

Tested on: MDA-MB-435
procedure.text: NCI-60 SRB screen: melanoma MDA-MB-435
Type: cell-based, human
conditions: MDA-MB-435; single dose 10 µM
readout.label: Percentage Cell Growth (%)
I only need the number, in %, no unit after it.

Illustrative cases are given below, each with its answer.
C=C(C)[C@@H]1CC[C@]2(C(=O)NCCCN)CC[C@]3(C)[C@H](CC[C@@H]4[C@@]5(C)CCC(=O)C(C)(C)[C@@H]5CC[C@]43C)[C@@H]12
−32.41
C=C(C)[C@@H]1CC[C@]2(C(N)=O)CC[C@]3(C)[C@H](CC[C@@H]4[C@@]5(C)CC[C@H](O)C(C)(C)[C@@H]5CC[C@]43C)[C@@H]12
−4.44
C=C(C)[C@@H]1CC[C@]2(C(=O)NCCNCCNCCN)CC[C@]3(C)[C@H](CC[C@@H]4[C@@]5(C)CCC(=O)C(C)(C)[C@@H]5CC[C@]43C)[C@@H]12
−49.89
CC(=O)OCC12CCC(C(C)C(N)=O)C1C1CCC3C4(C)CCC(OC(C)=O)C(C)(C)C4CCC3(C)C1(C)CC2 (stereo not drawn)
−63.78
C=C(C)[C@@H]1CC[C@]2(C(=O)OC)CC[C@]3(C)[C@H](CC[C@@H]4[C@@]5(C)CCC(=NOCCC(=NOCCC#N)NCCC#N)C(C)(C)[C@@H]5CC[C@]43C)[C@@H]12
14.55

We next turn to a different molecule, shown below.
# returns recorded Percentage Cell Growth (system: MDA-MB-435) for C=C(C)[C@@H]1CC[C@]2(C(=O)NCCNCCNCCN)CC[C@]3(C)[C@H](CC[C@@H]4[C@@]5(C)CC[C@H](O)C(C)(C)[C@@H]5CC[C@]43C)[C@@H]12
−89.21
